test: Fraction unbound in Wistar Han rat liver at 2 uM incubated for 6 hrs by equilibrium dialysis method
Could you label it Yes if measured fraction unbound at 6 h, 2 µM is 0.1 or higher, and No otherwise?

**Q:** Is fraction unbound at 6 h, 2 µM for `Oc1noc2cc(Cl)c(Cl)cc12` at or above 0.1?
**A:** Yes

**Q:** Next up: `O=C(NC(c1ccccc1)c1ccccc1)C1CC1`
**A:** Yes

**Q:** Next up: `C[C@H](c1nc2cnc(N3CCC[C@@H](C(=O)N4CCCC4)C3)nc2[nH]1)n1cc(Cl)cn1`
**A:** Yes

**Q:** Next up: `COc1cc(/C=C2\CCCN([C@@H](C)c3ccc(F)cc3)C2=O)ccc1-n1cnc(C)c1`
**A:** No

**Q:** Next up: `CC1(C)CN(CCC#N)C(=O)[C@@H]1Oc1ccc(C#N)c(C(F)(F)F)c1`
**A:** Yes

* * *

assay: Fraction unbound in Wistar Han rat heart at 2 uM incubated for 6 hrs by equilibrium dialysis method
Values of fraction unbound at 6 h, 2 µM strictly less than 0.05 map to Met, and values of at least 0.05 map to Not met.

**Q:** Does the reported fraction unbound at 6 h, 2 µM of `CCC[C@H](Oc1cc(C)c(-n2cc(C(F)(F)F)cn2)c(C)c1)c1ccc(C(=O)NCCC(=O)O)cc1` stay below 0.05?
**A:** Met

**Q:** Next up: `COCCCN1C[C@H](C)N(C(=O)N2Cc3c(NC(=O)c4ccccn4)n[nH]c3C2(C)C)C[C@H]1C`
**A:** Not met

**Q:** Next up: `CN(C)C[C@@H](OC(=O)N1Cc2c(NC(=O)C3(C(F)(F)F)CC3)n[nH]c2C1(C)C)c1ccccc1`
**A:** Not met

**Q:** Next up: `O=C(NC1CCCC1)C1CCN(c2nc3cc(Cl)ccc3o2)CC1`
**A:** Met

**Q:** Next up: `CS(=O)(=O)c1cccc(C(=O)O)c1`
**A:** Not met

**Q:** Next up: `Cc1ccc(NC(=O)c2cc(Oc3ccc(S(C)(=O)=O)cc3)c3c(c2)OC(C)(C)C3)nc1`
**A:** Met

**Q:** Next up: `COc1ccc(-c2cc3c(S(=O)(=O)O)c[nH]c3cc2Cl)cc1`
**A:** Not met

**Q:** Next up: `COc1cc2c(OC[C@H]3NC(=O)[C@@H]4C[C@]34C)nccc2cc1C(N)=O`
**A:** Not met

**Q:** Next up: `Cc1nc2cc(-c3cc(F)cc(C#N)c3)ccc2s1`
**A:** Met

* * *

assay: Unbound tissue partition coefficient, ratio of drug level in liver to plasma in Wistar Han rat at 1 to 2 mg/kg, iv infused for 10 to 20 hrs by LC-MS/MS analysis; conditions: liver/plasma
Please go through the items and note down their Kp uu.
# print the numeric value only

**Q:** Which measured Kp uu value corresponds to `CN1CC[C@H](c2c(O)cc(O)c3c(=O)cc(-c4ccccc4Cl)oc23)[C@H](O)C1` ?
**A:** 0.33

**Q:** Next up: `O=C(O)c1c[nH]c2cc(Cl)c(-c3ccc(CC(=O)N4CCOCC4)cc3)cc12`
**A:** 40

**Q:** Next up: `C[C@H](CN1CCOCC1)n1/c(=N\C(N)=O)[nH]c2cc(/C=C3\c4ccccc4COc4cc(F)ccc43)ccc21`
**A:** 5.6

**Q:** Next up: `Cc1c(C(=O)O)cnn1-c1nc(-c2cccc(C(F)(F)F)c2)cs1`
**A:** 3.9

**Q:** Next up: `C[C@H]1COCCN1c1nc(-c2cnc(N)nc2)c2c(n1)N([C@@]1(C)CCN(C(=O)C(C)(C)N)C1)CC2`
**A:** 3.6

**Q:** Next up: `Oc1noc2cc(Cl)c(Cl)cc12`
**A:** 0.22

**Q:** Next up: CCCC(Oc1ccc(-n2cc3ccccc3n2)cc1)c1ccc(C(=O)NCCC(=O)O)cc1 (centres undefined)
**A:** 14

**Q:** Next up: `CCC[C@H](Oc1cc(C)c(-n2cc(C(F)(F)F)cn2)c(C)c1)c1ccc(C(=O)NCCC(=O)O)cc1`
**A:** 13

**Q:** Next up: `COc1ccc(-c2cc3c(S(=O)(=O)O)c[nH]c3cc2Cl)cc1`
**A:** 8.7
